All values here come from patent US20100016440A1.

System: KCl-evoked SP release from spinal cord superfused synaptosomes
assay_summary: Substance P (SP) release from rat spinal cord synaptosomes
Assay type: cell-based
experimental_conditions: KCl (35 mM) evoked, RIA, concentrations 0.1 to 30 μM, read-out: IC50 for reducing evoked SP release
measurement_type: pIC50
pIC50 is a log-scale quantity: -log10 of the concentration expressed in molar.

Would you kindly share the measured pIC50 for C[C@H](NCc1ccc(OCc2ccccc2F)cc1)C(N)=O ? 5.67
